Values from patent US6747033B2

System: Botrytis cinera
Experiment: In vivo fungicidal activity, Pepper Botrytis (PB); further: ranges in brackets are in %
Conditions: 200 ppm spray

{"molecule": "Cn1c(Cl)c(-c2c(F)cc(F)cc2F)c(=NCC(F)(F)F)n2ncnc12 [Example 17]", "PB disease control rating": "0 (0)"}
{"molecule": "CC(N=c1c(-c2ccc(F)cc2F)c(Cl)n(C)c2ncnn12)C(F)(F)F (centres unmarked) [Example 7]", "PB disease control rating": "0 (0)"}
{"molecule": "COc1cc(F)c(-c2c(Cl)nc3n(C)cnn3c2=NC(C)C(F)(F)F)c(F)c1 (centres unmarked) [Example 13]", "PB disease control rating": "0 (0)"}
{"molecule": "CCCn1c(Cl)c(-c2c(F)cc(F)cc2F)c(=NC(C)C(F)(F)F)n2ncnc12 (centres unmarked) [Example 2]", "PB disease control rating": "1 (1-14)"}
{"molecule": "CCCOc1cc(F)c(-c2c(Cl)nc3n(CCC)cnn3c2=NC(C)C(F)(F)F)c(F)c1 (centres unmarked) [Example 9]", "PB disease control rating": "2 (15-29)"}
{"molecule": "Cn1c(Cl)c(-c2c(F)cc(F)cc2F)c(=NCC(F)(F)F)n2ncnc12 [Example 1A]", "PB disease control rating": "0 (0)"}
{"molecule": "CC(N=c1c(-c2ccccc2Cl)c(Cl)n(C)c2ncnn12)C(F)(F)F (centres unmarked) [Example 6]", "PB disease control rating": "0 (0)"}
{"molecule": "Cn1c(Cl)c(-c2c(F)cc(F)cc2F)c(=NCC(F)(F)F)n2ncnc12 [Example 8]", "PB disease control rating": "0 (0)"}

----------
Some compounds, each annotated with its measured PYTHU inhibition of mycelial growth rating.
Test system: Pythium ultimum
Assay: In vitro fungicidal activity, Fruit rot (PYTHUL)
Type: cell-based
Set-up: key: 0: None; 3: slight; 5: moderate; 7: severe; 9: complete
Conditions: 10 ppm, 3-7 days of incubation
assay_metric: PYTHU inhibition of mycelial growth rating

{"compound": "Cn1c(Cl)c(-c2c(F)cc(F)cc2F)c(=NCC(F)(F)F)n2ncnc12 [Example 8]", "result": 0}
{"compound": "CC(N=c1c(-c2ccccc2Cl)c(Cl)nc2n(C)cnn12)C(F)(F)F (stereo not drawn) [Example 15]", "result": 0}
{"compound": "CCCn1cnn2c(=NC(C)C(F)(F)F)c(-c3c(F)cc(F)cc3F)c(Cl)nc12 (stereo not drawn) [Example 11]", "result": 1}

----------
Test system: Pythium ultimum
Assay: In vitro fungicidal activity, Fruit rot (PYTHUL)
Type: cell-based
Design: key: 0: None; 3: slight; 5: moderate; 7: severe; 9: complete
Details: 10 ppm, 3-7 days of incubation
Some compounds, each annotated with its measured PYTHU inhibition of mycelial growth rating.
assay_metric: PYTHU inhibition of mycelial growth rating

{"compound": "CCCOc1cc(F)c(-c2c(Cl)nc3n(CCC)cnn3c2=NC(C)C(F)(F)F)c(F)c1 (centres unmarked) [Example 9]", "result": 0}
{"compound": "Cn1c(Cl)c(-c2c(F)cc(F)cc2F)c(=NCC(F)(F)F)n2ncnc12 [Example 17]", "result": 5}
{"compound": "CCn1cnn2c(=NC(C)C(F)(F)F)c(-c3c(F)cc(F)cc3F)c(Cl)nc12 (centres unmarked) [Example 10]", "result": 3}
{"compound": "Cn1c(Cl)c(-c2c(F)cc(F)cc2F)c(=NCC(F)(F)F)n2ncnc12 [Example 1A]", "result": 0}
{"compound": "CC(N=c1c(-c2ccc(F)cc2F)c(Cl)nc2n(C)cnn12)C(F)(F)F (centres unmarked) [Example 16]", "result": 5}
{"compound": "CC(N=c1c(-c2ccccc2Cl)c(Cl)n(C)c2ncnn12)C(F)(F)F (centres unmarked) [Example 6]", "result": 0}
{"compound": "CC(N=c1c(-c2ccc(F)cc2F)c(Cl)n(C)c2ncnn12)C(F)(F)F (centres unmarked) [Example 7]", "result": 0}
{"compound": "CCn1c(Cl)c(-c2c(F)cc(F)cc2F)c(=NC(C)C(F)(F)F)n2ncnc12 (centres unmarked) [Example 3]", "result": 0}
